// reported TGI for each item listed
Test system: HOP-92 NSCLC
Assay: NCI tumour cell line growth inhibition, 48 h
measurement-label: TGI

CCOC(=O)C1=c2[nH]c3cccc4cccc(c43)n2C(=O)CC1c1ccccc1 (configuration not stated) = > 100 µM
COc1cc(C(=O)C2C(=O)c3ccccc3C2C2(O)c3ccccc3CC2C(O)c2cc(OC)c(OC)c(OC)c2)cc(OC)c1OC (configuration not stated) = > 100 µM
Cc1ccc(NCC(=O)N2CC(=O)Nc3ccccc32)cc1 = > 100 µM
CSc1cc(Br)ccc1-n1c(C(=O)c2ccccc2)c(SC)n(-c2ccccc2)c1=O = > 100 µM
CCOC(=O)C1C(c2ccc(O)c(OC)c2)c2c([nH][nH]c2=O)CC1(C)O (configuration not stated) = > 100 µM
COC(=O)C1(C(=O)OC)N=C(C)OC1c1ccccn1 (configuration not stated) = > 100 µM
Clc1cc2c(nn1)Nc1ccccc1S2 = > 100 µM
CC(=O)O[C@H]1C=CC(=O)C(C)CC1C (some centres not stated) = > 100 µM
C[C@]12CCC[C@H](O)[C@H]1C[C@H](CO)CC2 = > 100 µM
NC1(C(=O)O)CCc2ccc(N(CCCl)CCCl)cc2C1 (configuration not stated) = > 100 µM
Cn1c(=O)c2ccc(-c3ccc(Br)cc3)nc2n(C)c1=O = > 100 µM
Cc1ccc2c(c1)C1C(CO2)C(c2ccccc2)=NN1c1ccccc1 (configuration not stated) = > 100 µM
CCOC(=O)CSc1nnc(CSc2nc(-c3ccccc3)c(-c3ccccc3)[nH]2)n1-c1ccccc1 = > 100 µM
CNc1cc2nc3cc(NC)c(C)cc3cc2cc1C = 19.1 µM
CC1=NN2C(c3ccc(C)cc3)=CSC2=NC(C)(C)C1 = > 100 µM
COc1cc(OC)c2c(=O)c(OC)c(-c3ccc4c(c3)OCO4)oc2c1OC = 90.9 µM
NCCCn1c2c(c3ccc([N+](=O)[O-])cc3c1=O)C(=O)c1cc(-c3ccccc3)ccc1-2 = 3.15 µM
Cc1ccc(Nc2[nH]c(=O)[nH]c(=O)c2C)cc1Cl = > 100 µM
O=C(COc1ccc(OCC(=O)NNC2=NC(c3cc(F)c(Cl)cc3Cl)CS2)c(Cl)c1)NNC1=NC(c2cc(F)c(Cl)cc2Cl)CS1 (configuration not stated) = > 100 µM
O=C1CCCC(=O)N1n1c(Cc2ccccc2)n[nH]c1=O = > 100 µM
O=c1cc(N2CCCC2)[nH]c(=O)n1-c1ccc(F)cc1 = > 100 µM
CCCCCCCNC(P(=O)(O)O)P(=O)(O)O = > 100 µM
Cn1c2ccccc2c(=O)c2c(O)cc3c(c21)CC(C1(C)CO1)O3 (configuration not stated) = 30.8 µM
NS(=O)(=O)c1ccc(NCc2cnc3ccccc3n2)cc1 = > 100 µM
C/C(=N\NC(=S)N1CCN(C2CCCCCC2)CC1)c1ccccn1 = 3.05 µM
CCCCCCCCCCC/C=C\C[C@H](O)C/C=C1/C(=O)C=C[C@@H]1C/C=C\CCCC(=O)OC = 11.9 µM
CC(=O)OC12c3ccccc3-c3ccccc3C1C(C(=O)O)C2(Cl)C(=O)O (configuration not stated) = > 10 µM

====

System: HOP-92 NSCLC
Assay: NCI tumour cell line growth inhibition, 48 h
measurement-label: TGI (µM)

CC(C)(CCN=C(N)Nc1ccccn1)c1ccc(C(F)(F)F)cc1 = 27.6
Fc1ccc(-c2nn3c(-c4cc(C(F)(F)F)cc(C(F)(F)F)c4)nnc3s2)cc1 = 3.93
COc1cccc(-n2cc(-c3nc(Nc4cc(C)[nH]n4)c4ccccc4n3)nn2)c1 = 9.53
C/C=C(/CCC1NCCC2c3ccccc3NC12)[Si](C)(C)C (stereo not drawn) = 18.8
COC(CC1(/C=C/O[Si](C(C)C)(C(C)C)C(C)C)C(=O)N(COCC[Si](C)(C)C)c2ccccc21)OC (stereo not drawn) = 60
